target: Voltage-gated potassium channel subunit beta-2 (Rattus norvegicus); test: KvBeta positive modulators, primary screen, biochemical, NADPH fluorescence (AID 623); conditions: Recombinant KvBeta, NADPH fluorescence decrease slope, 10 min; at 10 µM; active compounds read low;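 further: fluorescence intensity change per second fitted from 20 to 320 s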

compound	tested.system	NADPH fluorescence slope
Cc1ccc(-c2ccc(/C=N/c3ncn[nH]3)o2)cc1Cl	Voltage-gated potassium channel subunit beta-2 (Rattus norvegicus)	-1.9e-05
CCCOc1ccc(N2C(=O)CC(N(Cc3ccc(S(N)(=O)=O)cc3)C(=O)CC)C2=O)cc1 (stereo unspecified)	Voltage-gated potassium channel subunit beta-2 (Rattus norvegicus)	1.9e-05
COC(=O)c1[nH]c2cc(OC)ccc2c1NC(=O)CCN1CCCC(C)(C)C1	Voltage-gated potassium channel subunit beta-2 (Rattus norvegicus)	-0.00014
CCn1cc(C(=O)O)c(=O)c2cc(F)c(N3CCNCC3)cc21	Voltage-gated potassium channel subunit beta-2 (Rattus norvegicus)	1.5e-05
COc1ccc2c(c1)nc(N)n2Cc1ccccc1	Voltage-gated potassium channel subunit beta-2 (Rattus norvegicus)	-2.5e-05
CCn1cc(C(=O)NCc2ccco2)c(=O)c2cc(F)c(N3CCN(C(=O)c4ccco4)CC3)cc21	Voltage-gated potassium channel subunit beta-2 (Rattus norvegicus)	2.6e-05
O=C1CC(c2ccco2)CC(O)=C1C=Nc1cc(Cl)ccc1O (stereo unspecified)	Voltage-gated potassium channel subunit beta-2 (Rattus norvegicus)	-5.2e-05
O=C(O)CC(C(=O)OCC1CCCO1)N1CCOCC1 (stereo unspecified)	Voltage-gated potassium channel subunit beta-2 (Rattus norvegicus)	-4.1e-05
Nc1ccc2cn[nH]c2c1	Voltage-gated potassium channel subunit beta-2 (Rattus norvegicus)	-2.3e-05
CCN(CC)CCCn1c(C)cc2c(c1=O)C(c1cccc(Cl)c1)C(C#N)=C(N)O2 (stereo unspecified)	Voltage-gated potassium channel subunit beta-2 (Rattus norvegicus)	-4.3e-05
COC(=O)c1cc2c(=O)n3cccc(C)c3nc2n(Cc2cccnc2)c1=N	Voltage-gated potassium channel subunit beta-2 (Rattus norvegicus)	-3.6e-05
